Source of measurements: PubChem BioAssay (NCI)

# Procedure summary: NCI Yeast Anticancer Drug Screen. Data for the bub3 strain (AID 167)
# Condition context: S. cerevisiae bub3 mutant strain, at 100.0 µM, active compounds read high
Compounds without any hit were thinned out: in the full panel of roughly 79,000, 15% have a hit. Calls of active or inactive are those of the source. No stated cut-off is given here; in the data, active means growth inhibition above about 70%; inactive means the rest.
Assign growth inhibition to each entry below.

response.value for CC(=O)O/N=C/c1c2ccccc2cc2ccccc12 (field: growth inhibition) = 63% (inactive)

response.value for CC1C=CN(N(C)C)C2=C1C(=O)c1cnccc1C2=O (stereo not given) (field: growth inhibition) = 97% (active)

response.value for CCOc1ccccc1N1C(=O)CC(Sc2ccccc2N)C1=O (stereo not given) (field: growth inhibition) = -38% (inactive)

response.value for O=C1c2ccccc2C(=O)C1C(c1ccc(F)cc1)C1C(=O)c2ccccc2C1=O (field: growth inhibition) = 83% (active)

response.value for CCCCCCCCCCCCCCCCOCC(Cl)COP(=O)(O)OP(=O)(O)OCC1OC(n2cnc3c(N)ncnc32)C(O)C1O (stereo not given) (field: growth inhibition) = 39% (inactive)
